# Tested on: RPMI-8226 leukemia
# experimental-details: NCI-60 one-dose screen, 48 h (100 = growth as untreated, 0 = no growth, -100 = all killed)
# condition-details: 10 µM unless noted
The panel holds about 83,000 compounds, 20% with a hit somewhere; the sample as a whole holds those more often.
measurement-name: growth (%)
Answers are plain numbers, in %.

Guide cases for growth, answers given:
Cc1ccc2c(c1)nc(-c1ccccc1)n2CC(=O)N=Nc1c(O)[nH]c2ccc(Br)cc12	-1.7
CSc1ccc(C(=O)Nc2ccc3nnn(/C(C#N)=C/c4ccccn4)c3c2)cc1	-40.8
CCCSc1nc(NCCc2c[nH]c3ccccc23)c(C#N)c(-c2ccc(OC)cc2)n1	23.9
Cc1ccc(S(=O)(=O)c2nc(S(=O)(=O)c3ccc(C)cc3)c(N3CCN(C)CC3)s2)cc1	52.2

Here's the next entry for you.
growth recorded for this compound, COc1cccc(-c2c(C#N)c(-c3ccc(Cl)cc3)nc3n[nH]c(-c4ccc(Cl)cc4)c23)c1 , is 7.25

====

# Tested on: UACC-257 melanoma
# experimental-details: NCI-60 one-dose screen, 48 h (100 = growth as untreated, 0 = no growth, -100 = all killed)
# condition-details: 10 µM unless noted
Compounds without any hit were thinned out: in the full panel of roughly 83,000, 20% have a hit. Activity calls are given as the source filed them. How the source made its calls: active means growth percent below 10; inactive means the rest.
measurement-name: growth

O=C(CN1C(=O)/C(=C/c2ccccc2Cl)SC1=S)N1CCOCC1	94.3% (inactive)
CCOc1ccc(-c2c(C#N)c(-c3ccc(Cl)cc3)nc3n[nH]c(-c4ccc(Cl)cc4)c23)cc1OC	54.4% (inactive)
COc1cc(-c2cc(-c3cccc(OCC(=O)O)c3)[nH]c(=O)c2C#N)cc(OC)c1OC	105% (inactive)
COc1ccc(-c2nc3cc(C)ccc3n2CC(=O)N=Nc2c(O)[nH]c3ccc(Cl)cc23)cc1	-31.2% (active)
C/C(=N\Nc1ccc(S(N)(=O)=O)cc1)c1ccc(N=Nc2c(Nc3ccccc3)[nH][nH]c2=O)cc1	5.63% (active)

Hi! Can you tell me growth for each of these molecules?
1. C=C1CCC2C3(C)COC(c4ccco4)OC3CCC2(C)C1CC(Sc1ccccc1)C1=CCOC1=O (centres undefined)
2. COc1ccc(/C=C2\C(=O)Nc3ccc(Cl)cc32)cc1OCc1ccccn1
3. NS(=O)(=O)c1ccc(N=Nc2c(O)n(CC(=O)Nc3ccccc3Cl)c3ccccc23)cc1
4. COc1ccc(Cc2nn(CC(=O)N/N=C/c3ccc(F)cc3)c(=O)c3c(C)noc23)cc1

["54.1% (inactive)", "72.6% (inactive)", "53.2% (inactive)", "54.3% (inactive)"]

====

# Test system: NCI/ADR-RES ovarian
# experimental-details: NCI-60 one-dose screen, 48 h (100 = growth as untreated, 0 = no growth, -100 = all killed)
# condition-details: 10 µM unless noted
This is part of a sample that, as a whole, favours compounds with a hit. Of some 83,000 tested, about 20% had one in any assay.
// returns not satisfied unless growth is strictly below 10%, in which case satisfied

O=C(Cn1c(/C=C/c2cccc([N+](=O)[O-])c2)nc2ccccc2c1=O)Nc1ccccc1	not satisfied
O=C(NNc1nc2cc(C(F)(F)F)ccc2n2cccc12)c1cnccn1	satisfied
CC1(C)CC[C@]2(C(=O)O)CC[C@]3(C)C(=CCC4[C@@]5(C)C[C@@H](O)[C@@H]6OC(c7ccccc7F)OC[C@@]6(C)C5CC[C@]43C)C2C1 (some centres undefined)	satisfied
Cc1occc1C(=O)NN1C(=O)/C(=C/C=C/c2ccc([N+](=O)[O-])o2)SC1=S	satisfied
CCCCCCCCOc1cccc(S(=O)(=O)Nc2ccc(C)cc2C(=O)O)c1	not satisfied

Report whether reported growth is lower than 10% (strictly) for Cc1ccc(-c2nc(Nc3ccccc3S(N)(=O)=O)c3ccccc3n2)cc1
not satisfied

Consider the compound COc1ccccc1/C=C/C(=O)c1ccc(OC)c(S(N)(=O)=O)c1 . Is its growth strictly less than 10%?
not satisfied

Does COc1cc(/C=C/C(=O)c2ccccc2)ccc1Oc1nc(Nc2ccc(F)cc2)nc(N(C)C)n1 have growth strictly under 10%?
not satisfied

Problem: For the compound Cn1cc(-c2cc(N)n3nc(-c4cn(C)c5ccccc45)cc3n2)c2cc(Cl)ccc21 , is growth under 10%?
satisfied

====

# System: A498 renal
# experimental-details: NCI-60 one-dose screen, 48 h (100 = growth as untreated, 0 = no growth, -100 = all killed)
# condition-details: 10 µM unless noted
The panel holds about 83,000 compounds, 20% with a hit somewhere; the sample as a whole holds those more often.
Hi there, I'd appreciate the recorded growth for every entry that follows.
One number for each entry, in %.

COc1ccc2oc3c4[nH]c5ccccc5c4c4c(c3c2c1)C(=O)N(C(=O)OC(C)(C)C)C4=O	-10.9

Please report growth for every entry that follows.
1. Cc1cc(=O)oc2cc(OCCOc3ccc(/C=C/C(=O)Nc4ccccc4N)cc3)ccc12
2. CN(C)c1nc(NCCNS(=O)(=O)c2ccc(C(=O)/C=C/c3ccc(C(F)(F)F)cc3)cc2)nc(Nc2ccc(F)cc2)n1
3. COc1c(F)ccc(C(=O)Nc2ccc3nc(NC(=O)C4CCCN(S(=O)(=O)c5ccc(Br)c(F)c5)C4)sc3c2)c1F (stereo not given)
4. Cc1cc(N=C2NC(=O)CS2)n[nH]1

1: 14.4; 2: 49.6; 3: 112; 4: 124

====

# Tested on: T-47D breast
# experimental-details: NCI-60 one-dose screen, 48 h
# condition-details: 10 µM unless noted
This is part of a sample that, as a whole, favours compounds with a hit. Of some 83,000 tested, about 20% had one in any assay. Active and inactive are the calls of the source. Rule for the calls: active = growth percent below 10; inactive = the rest.
# output must be one of active, inactive

What outcome does the record of this test show for Cc1cccc(NC(=O)[C@]23CCC(C)(C)CC2C2=CCC4[C@@]5(C)C[C@@H](O)[C@H](O)[C@@](C)(CO)C5CC[C@@]4(C)[C@]2(C)CC3)c1 (stereo partly drawn) ?
inactive

Returns: the outcome recorded for COc1ccc(C(=O)/C=C/c2cccc(Cl)c2Cl)cc1S(N)(=O)=O in this assay.
active

What call does the record list for O=C1NC(=O)/C(=C/c2ccccc2OCc2cc3ccccc3nc2Cl)S1 ?
inactive

Test call, this compound: CCCCSc1nc(Nc2ccc(S(N)(=O)=O)cc2)c(C#N)c(-c2cc(OC)c(OC)c(OC)c2)n1
inactive

Look up the recorded call for COc1cc2oc(-c3cccc(C(=O)Nc4ccc(Cl)cc4)c3)cc(=O)c2c(OCCNC(=O)[C@H](CO)NC(=O)OC(C)(C)C)c1OC in this test.
inactive

Short answer needed: outcome of this test for O=C(NNc1nc2cc(F)ccc2n2c(CN3CCCCC3)ccc12)c1cnccn1 ?
active

Dear all, I need the recorded test outcome for COc1ccc(/C=C2\C(=O)Nc3ccc(Cl)cc32)cc1OCc1ccccn1 , thank you.
inactive

Hi, sorry to bother you, what did the test record for COc1ccc(-c2nc3ccc(C(=O)NN4C(=O)c5ccc([N+](=O)[O-])cc5C4=O)cc3[nH]2)cc1 ?
inactive

====

# System: SK-MEL-28 melanoma
# experimental-details: NCI-60 one-dose screen, 48 h
# condition-details: 10 µM unless noted
# Protocol: Growth inhibition of the SK-MEL-28 human tumor cell line is measured as a screen for anti-cancer activity. Cells are grown in 96 well plates and exposed to the test compound for 48 hours. Compounds are tested at a single concentration, which is 10^-5 M for most compounds. The reported endpoint is percent growth (GI% or GIPRCNT), where numbers from 0 - 100% represent growth inhibition, and numbers from -100% - 0 represent cell death. For example, a value of 40 represents 60% growth inhibition. […]
Compounds without any hit were thinned out: in the full panel of roughly 83,000, 20% have a hit. The source made the active and inactive calls. The calls were made as follows: active = growth percent below 10; inactive = the rest.
Parameter call: string, one of label 1 (active), label 0 (inactive)

COc1ccc2[nH]c(O)c(N=NC(=O)Cn3c(-c4ccccc4)nc4cc(C)ccc43)c2c1	label 1

Assay outcome for COc1ccc(C2CC(c3ccc(S(=O)(=O)NCCNc4nc(Nc5ccc(F)cc5)nc(N(C)C)n4)cc3)=Nc3c(N)nc(N)nc3N2)cc1 (stereo not drawn) : what was it?
label 0

Check the results log: what was the call for COc1c(F)ccc(C(=O)Nc2ccc3nc(NC(=O)C4CCCN(S(=O)(=O)c5ccc(Br)s5)C4)sc3c2)c1F (stereo not drawn) ?
label 0

Dear all, I need the recorded test outcome for O=C(COc1ccc(NC(=O)Nc2ccccc2)cc1)N=Nc1c(O)[nH]c2ccc([N+](=O)[O-])cc12 , thank you.
label 1

Would you mind telling me which call this test gave C#CCOc1ccc(/C=N/Nc2nc(-c3cc4cc(OC)ccc4oc3=O)cs2)cc1OC ?
label 0

Short answer needed: outcome of this test for COc1c(F)ccc(C(=O)Nc2ccc3nc(NC(=O)C4CCCN(S(=O)(=O)C5CC5)C4)sc3c2)c1F (stereo not drawn) ?
label 0
